Test system: B16F10-Cas9 cells co-cultured with Pmel-1 T cells
protocol.details: Genome-scale CRISPR-Cas9 screen, selection with Pmel-1 T cells
Format: cell-based, mouse
test.conditions: Table 3; B16F10-Cas9 cells pre-treated with IFNγ, co-cultured with Pmel-1 T cells 1:1 for three days; negative = depleted, positive = enriched
# thresholds on Pmel+ (sgRNA Log(2) fold change, Pmel-1 selection versus control T cells) define classes: class 0 (below -0.7), class 1 (-0.7 to below 2), class 2 (2 or more)

Which class is correct for the following sequence? CACCGGATCGTCCAATTCCG (chemistry not fully specified)
class 0

###

System: B16F10-Cas9 cells pulsed with SIINFEKL peptide, co-cultured with OT-I T cells
protocol.details: Genome-scale CRISPR-Cas9 screen, selection with OT-I T cells
Type: cell-based, mouse
test.conditions: Table 3; B16F10-Cas9 cells pulsed with SIINFEKL, co-cultured with OT-I T cells 1:1 for one day; negative = depleted, positive = enriched
Please provide measured OT1 (sgRNA Log(2) fold change, OT-I selection versus control T cells) for the entries that follow.
Numbers only.

Solved entries:
In plain terms, TCTTCAGGAGAGAATACCAT (chemistry not fully specified) has a documented OT1 (sgRNA Log(2) fold change, OT-I selection versus control T cells) of 3.69

In plain terms, AGCGTATAATCTTCGATCAG (chemistry not fully specified) has a documented OT1 (sgRNA Log(2) fold change, OT-I selection versus control T cells) of -2.46

In plain terms, GCCAGCTTTCTCGCACGTGG (chemistry not fully specified) has a documented OT1 (sgRNA Log(2) fold change, OT-I selection versus control T cells) of -0.61

Can you give me OT1 (sgRNA Log(2) fold change, OT-I selection versus control T cells) for all of these, one by one?
1. TGCACAGCATACACTAGTGA (chemistry not fully specified)
2. TTCGGACAAATACGACGACG (chemistry not fully specified)
3. GTCTTGTGCAAAAAGCCCGA (chemistry not fully specified)
4. GGACGAGAGCAACATAAACA (chemistry not fully specified)
5. TGTGATGTTAGATAAACAGA (chemistry not fully specified)
6. ATGTTGCCATCGTCACTGCA (chemistry not fully specified)

1. -2.96
2. -2.32
3. -2.54
4. -0.03
5. 1.50
6. 0.41

###

System: B16F10-Cas9 cells co-cultured with Pmel-1 T cells
protocol.details: Genome-scale CRISPR-Cas9 screen, selection with Pmel-1 T cells
Type: cell-based, mouse
test.conditions: Table 3; B16F10-Cas9 cells pre-treated with IFNγ, co-cultured with Pmel-1 T cells 1:1 for three days; negative = depleted, positive = enriched
# thresholds on Pmel+ (sgRNA Log(2) fold change, Pmel-1 selection versus control T cells) define classes: lower range = under -0.8, middle range = from -0.8 up to 0.1, upper range = 0.1 and over

The examples below pair each entry with its known result.
Which class is correct for the following sequence? TTAGTTCTGGCAAAGCGCCG (chemistry not fully specified)
lower range

Which class is correct for the following sequence? GAATCTGAATGGAGGAACCT (chemistry not fully specified)
middle range

Which class is correct for the following sequence? TGGAACCTCCTGATCCGCTG (chemistry not fully specified)
upper range

Which class is correct for the following sequence? ATCACCTGGAGCATGCAGGA (chemistry not fully specified)
upper range

Which class is correct for the following sequence? AAACAAGAGCACACTCCCCG (chemistry not fully specified)
upper range

Which class is correct for the following sequence? CAGCCTGCTGAGGATCCAGA (chemistry not fully specified)
lower range

Which class is correct for the following sequence? GCTGCCCCGCAGGATCATCA (chemistry not fully specified)
lower range

Which class is correct for the following sequence? CACTGCGAGACCAATCTAGA (chemistry not fully specified)
upper range

Further cases:
Which class is correct for the following sequence? AGAAGGCAGGCAGAGTGGTG (chemistry not fully specified)
middle range

Which class is correct for the following sequence? CATAGCCAGAACAGTTGACC (chemistry not fully specified)
middle range

###

System: B16F10-Cas9 cells pulsed with SIINFEKL peptide, co-cultured with OT-I T cells
protocol.details: Genome-scale CRISPR-Cas9 screen, selection with OT-I T cells
Format: cell-based, mouse
test.conditions: Table 3; B16F10-Cas9 cells pulsed with SIINFEKL, co-cultured with OT-I T cells 1:1 for one day; negative = depleted, positive = enriched
Please note: Yes applies when OT1 (sgRNA Log(2) fold change, OT-I selection versus control T cells) is 0.9 or greater, and No applies otherwise.

The examples below pair each entry with its known result.
Record GAAAAGCAAGCGTAATCTCC (chemistry not fully specified) ; criterion: OT1 (sgRNA Log(2) fold change, OT-I selection versus control T cells) no lower than 0.9. Met?
Yes

Record TTGTCCGCGTTACTTCCCTG (chemistry not fully specified) ; criterion: OT1 (sgRNA Log(2) fold change, OT-I selection versus control T cells) no lower than 0.9. Met?
No

Record TGGTCTAGTTACCATGCAAG (chemistry not fully specified) ; criterion: OT1 (sgRNA Log(2) fold change, OT-I selection versus control T cells) no lower than 0.9. Met?
No

Record CCATATCCAAATAGCCACAG (chemistry not fully specified) ; criterion: OT1 (sgRNA Log(2) fold change, OT-I selection versus control T cells) no lower than 0.9. Met?
No

Further cases:
Record CATAGCCAGAACAGTTGACC (chemistry not fully specified) ; criterion: OT1 (sgRNA Log(2) fold change, OT-I selection versus control T cells) no lower than 0.9. Met?
No

Record TTCAGGGTGAAATACGAGGA (chemistry not fully specified) ; criterion: OT1 (sgRNA Log(2) fold change, OT-I selection versus control T cells) no lower than 0.9. Met?
Yes

Record GGAAACGTGGCATGTCTCGG (chemistry not fully specified) ; criterion: OT1 (sgRNA Log(2) fold change, OT-I selection versus control T cells) no lower than 0.9. Met?
Yes

Record CGGGTATTACAGACTAACTG (chemistry not fully specified) ; criterion: OT1 (sgRNA Log(2) fold change, OT-I selection versus control T cells) no lower than 0.9. Met?
Yes

Record ACGCAATGAAAAGGTTTAGG (chemistry not fully specified) ; criterion: OT1 (sgRNA Log(2) fold change, OT-I selection versus control T cells) no lower than 0.9. Met?
No

###

Please provide measured OT1 (sgRNA Log(2) fold change, OT-I selection versus control T cells) for the entries that follow.
Tested on: B16F10-Cas9 cells pulsed with SIINFEKL peptide, co-cultured with OT-I T cells
protocol.details: Genome-scale CRISPR-Cas9 screen, selection with OT-I T cells
Format: cell-based, mouse
test.conditions: Table 3; B16F10-Cas9 cells pulsed with SIINFEKL, co-cultured with OT-I T cells 1:1 for one day; negative = depleted, positive = enriched
One number for each entry.

Solved entries:
Form field, OT1 (sgRNA Log(2) fold change, OT-I selection versus control T cells) with B16F10-Cas9 cells pulsed with SIINFEKL peptide, co-cultured with OT-I T cells, item CTGTTACCTTCATAGATAAG (chemistry not fully specified) : -2.50

Form field, OT1 (sgRNA Log(2) fold change, OT-I selection versus control T cells) with B16F10-Cas9 cells pulsed with SIINFEKL peptide, co-cultured with OT-I T cells, item GAGTTGCAGCCAGATACGCG (chemistry not fully specified) : -3.25

Form field, OT1 (sgRNA Log(2) fold change, OT-I selection versus control T cells) with B16F10-Cas9 cells pulsed with SIINFEKL peptide, co-cultured with OT-I T cells, item TCACTGCGTACGCGTCACTG (chemistry not fully specified) : -3.44

Form field, OT1 (sgRNA Log(2) fold change, OT-I selection versus control T cells) with B16F10-Cas9 cells pulsed with SIINFEKL peptide, co-cultured with OT-I T cells, item TAATTGCTGAGAATGTACTC (chemistry not fully specified) : -2.54

Form field, OT1 (sgRNA Log(2) fold change, OT-I selection versus control T cells) with B16F10-Cas9 cells pulsed with SIINFEKL peptide, co-cultured with OT-I T cells, item TGATAATAGATAAACGACCA (chemistry not fully specified) : -3.36

Can you give me OT1 (sgRNA Log(2) fold change, OT-I selection versus control T cells) for all of these, one by one?
1. ATTTGGATTTCAATGTGAGG (chemistry not fully specified)
2. AATGCTGACGACTTTCAATG (chemistry not fully specified)
3. TGATGCTGGCCTCTATACTG (chemistry not fully specified)

1. 5.19
2. -2.31
3. -3.28

###

Please provide measured OT1 (sgRNA Log(2) fold change, OT-I selection versus control T cells) for the entries that follow.
Test system: B16F10-Cas9 cells pulsed with SIINFEKL peptide, co-cultured with OT-I T cells
protocol.details: Genome-scale CRISPR-Cas9 screen, selection with OT-I T cells
Type: cell-based, mouse
test.conditions: Table 3; B16F10-Cas9 cells pulsed with SIINFEKL, co-cultured with OT-I T cells 1:1 for one day; negative = depleted, positive = enriched
Numbers only.

Solved entries:
In plain terms, GCCTGTACCACGCAGCCAAG (chemistry not fully specified) has a documented OT1 (sgRNA Log(2) fold change, OT-I selection versus control T cells) of -2.37

In plain terms, CCTTTAGTAGCAGAAGCCGC (chemistry not fully specified) has a documented OT1 (sgRNA Log(2) fold change, OT-I selection versus control T cells) of -2.95

In plain terms, ATAGCACCAAAGCCTAACAA (chemistry not fully specified) has a documented OT1 (sgRNA Log(2) fold change, OT-I selection versus control T cells) of -2.27

In plain terms, AGAAGCCACTCGGACTACTG (chemistry not fully specified) has a documented OT1 (sgRNA Log(2) fold change, OT-I selection versus control T cells) of -0.30

In plain terms, GCCCTTTACTTTCAGTACGG (chemistry not fully specified) has a documented OT1 (sgRNA Log(2) fold change, OT-I selection versus control T cells) of -2.52

Can you give me OT1 (sgRNA Log(2) fold change, OT-I selection versus control T cells) for all of these, one by one?
1. GCTGGGGAACTCAATTATAG (chemistry not fully specified)
2. CGACGCAAGTGGGAGCAGAG (chemistry not fully specified)
3. AAGACATATAGTTATCAGCA (chemistry not fully specified)
4. GGTTCGCTTCTTCCAAACCA (chemistry not fully specified)
5. CTCTTCCAACACGTCCAAGT (chemistry not fully specified)

[-0.78, -2.09, -2.22, -2.41, 0.64]
